- System: NCI-H1688
- ASSAY EXPLANATION: inhibition of cell viability relative to untreated control (fraction); higher = stronger growth inhibition, active = 0.5 or more
- MEASUREMENT CONTEXT: 30 µM; 24 h
Where a name gives a salt, the structure may show the parent alone.
Outcome field: choose from active, inactive

As a guide, the following entries are already answered.
# COMPOUND, TESTED SYSTEM, CLASS ASSIGNMENT
measured = [
    ("C/C=C/c1ccc(OC)cc1 [Trans-Anethole]", "NCI-H1688", "inactive"),
    ("Cc1cc(O)cc(O[C@@H]2O[C@H](CO)[C@@H](O)[C@H](O)[C@H]2O)c1 [Orcinol glucoside]", "NCI-H1688", "inactive"),
    ("O=C(O)[C@H]1O[C@@H](Oc2cc3oc(-c4ccccc4)cc(=O)c3c(O)c2O)[C@H](O)[C@@H](O)[C@@H]1O [Baicalin]", "NCI-H1688", "inactive"),
    ("CC(C)[C@H](NC(=O)[C@H](CC(=O)O)NC(=O)[C@H](CCCCN)NC(=O)[C@@H](N)CCCN=C(N)N)C(=O)N[C@@H](Cc1ccc(O)cc1)C(=O)O [Thymopentin]", "NCI-H1688", "inactive"),
]

Can you look up the reported call for COC(=O)C1=CC[C@@]23CC[C@@H]([C@@](C)(/C=C/C=C(\C)C(=O)O)OC2=O)[C@@]3(OC(C)=O)CC1 [Pseudolaric Acid B] for me?
active

Also need CC(=O)OC/C=C(C)/C=C/C=C(C)/C=C/C1=C(C)CCCC1(C)C [Retinyl acetate] , thanks.
inactive

Also need C[C@H](CCC(=O)O)[C@H]1CC[C@H]2[C@@H]3[C@H](O)C[C@@H]4C[C@H](O)CC[C@]4(C)[C@H]3CC[C@]12C [Chenodeoxycholic acid] , thanks.
inactive

Also need O[C@H]1[C@H](O)[C@@H](O)[C@H](O)[C@@H](O)[C@H]1O [Inositol] , thanks.
inactive

Also need C=CCc1ccc(O)c(-c2cc(CC=C)ccc2O)c1 [Magnolol] , thanks.
inactive

Also need COc1cc(C[C@H]2C(=O)OC[C@@H]2Cc2ccc(OC)c(OC)c2)ccc1O [Arctigenin] , thanks.
inactive

Also need C=CCS[S+]([O-])CC=C (stereo not drawn) [Allicin] , thanks.
inactive

Also need CC(C)=CCC[C@](C)(O[C@@H]1O[C@H](CO[C@@H]2O[C@@H](CO)[C@H](O)[C@H]2O)[C@@H](O)[C@H](O)[C@H]1O)[C@H]1CC[C@]2(C)[C@@H]1[C@H](O)C[C@@H]1[C@@]3(C)CC[C@H](O[C@@H]4O[C@H](CO)[C@@H](O)[C@H](O)[C@H]4O[C@@H]4O[C@H](CO)[C@@H](O)[C@H](O)[C@H]4O)C(C)(C)[C@@H]3CC[C@]12C [Ginsenoside Rc] , thanks.
inactive

Also need NC[C@H]1O[C@H](O[C@H]2[C@H](O)[C@@H](O[C@H]3O[C@H](CO)[C@@H](O)[C@H](N)[C@H]3O)[C@H](N)C[C@@H]2N)[C@H](O)[C@@H](O)[C@@H]1O [Kanamycin sulfate] , thanks.
inactive

====

- Test system: NCI-H1688
- ASSAY EXPLANATION: inhibition of cell viability relative to untreated control (fraction); higher = stronger growth inhibition, active = 0.5 or more
- MEASUREMENT CONTEXT: 30 µM; 24 h
Counter-ions that a name gives are not always drawn.
Outcome field: choose from 1 for active, 0 for inactive

# MOLECULE, CLASS ASSIGNMENT
data = [
    ("CC1(C)CC[C@]2(C(=O)O)CC[C@]3(C)C(=CC[C@@H]4[C@@]5(C)CC[C@H](O)C(C)(C)[C@@H]5CC[C@]43C)[C@@H]2C1", 0),
    ("Cn1c(=O)c2nc[nH]c2n(C)c1=O", 0),
]

Can you look up the reported call for C=C[C@H]1CN2CC[C@H]1C[C@@H]2[C@@H](O)c1ccnc2ccc(OC)cc12 [Quinidine hydrochloride] for me?
0

Also need C[C@@H]1C(=O)O[C@H]2C[C@@]34[C@H]5C[C@@H](C(C)(C)C)[C@]36[C@@H](OC(=O)[C@@H]6O)O[C@@]4(C(=O)O5)[C@]21O [Ginkgolide A] , thanks.
0

Also need CC1(C)CC[C@]2(C(=O)O)[C@H](O)C[C@]3(C)C(=CC[C@@H]4[C@@]5(C)CC[C@H](O)C(C)(C)[C@@H]5CC[C@]43C)[C@H]2C1 , thanks.
0

Also need COc1c2occc2c(OC)c2c(=O)cc(C)oc12 , thanks.
0

====

- System: NCI-H1688
- ASSAY EXPLANATION: inhibition of cell viability relative to untreated control (fraction); higher = stronger growth inhibition, active = 0.5 or more
- MEASUREMENT CONTEXT: 30 µM; 24 h
# inhibition of cell viability per record follows
# print the numeric value only

Using the record for COc1ccc(-c2cc(=O)c3c(O)c(OC)c(O[C@@H]4O[C@H](CO[C@@H]5O[C@@H](C)[C@H](O)[C@@H](O)[C@H]5O)[C@@H](O)[C@H](O)[C@H]4O)cc3o2)cc1 , report its inhibition of cell viability.
0.194

====

- Test system: NCI-H1688
- ASSAY EXPLANATION: inhibition of cell viability relative to untreated control (fraction); higher = stronger growth inhibition, active = 0.5 or more
- MEASUREMENT CONTEXT: 30 µM; 24 h
Structures can show the parent of a compound that is named as a salt.
READOUT: inhibition of cell viability
# print the numeric value only

// solved cases for inhibition of cell viability follow
# COMPOUND, READOUT, MEASURED
records = [
    ("COc1c(O)cc2oc3cc(O)c(CC=C(C)C)c(O)c3c(=O)c2c1CC=C(C)C [Mangostin]", "inhibition of cell viability", 1),
    ("Cc1ncc(CSSCc2cnc(C)c(O)c2CO)c(CO)c1O [Pyrithioxin]", "inhibition of cell viability", 0.0153),
    ("O=C(/C=C/c1ccc(O)c(O)c1)O[C@H](Cc1ccc(O)c(O)c1)C(=O)O [Rosmarinic acid]", "inhibition of cell viability", 0.0726),
]

Using the record for O=c1cc(-c2ccccc2)oc2ccccc12 [Flavone] , report its inhibition of cell viability.
0.149

Also need CN(C)[C@@H]1C(O)=C(C(N)=O)C(=O)[C@@]2(O)C(O)=C3C(=O)c4c(O)ccc(Cl)c4[C@@](C)(O)[C@H]3C[C@@H]12 [Chlortetracycline hydrochloride] , thanks.
-0.0618

Also need OCc1ccccc1O[C@@H]1O[C@H](CO)[C@@H](O)[C@H](O)[C@H]1O , thanks.
-0.21

Also need C[C@H]1COC2=C1C(=O)C(=O)c1c2ccc2c1CCCC2(C)C [Cryptotanshinone] , thanks.
1

Also need O=C(O)/C=C/c1ccc(O)cc1 [p-Coumaric acid] , thanks.
0.0191

====

- System: NCI-H1688
- ASSAY EXPLANATION: inhibition of cell viability relative to untreated control (fraction); higher = stronger growth inhibition, active = 0.5 or more
- MEASUREMENT CONTEXT: 30 µM; 24 h
Could you mark each record t if its inhibition of cell viability falls strictly under 0.02, and f if it equals or exceeds it?

As a guide, the following entries are already answered.
# COMPOUND, CLASS ASSIGNMENT
measured = [
    ("C=C1CC[C@H](O)C/C1=C/C=C1\\CCC[C@]2(C)[C@@H]([C@H](C)/C=C/[C@H](C)C(C)C)CC[C@@H]12 [Vitamin D2]", "t"),
    ("COc1ccc2[nH]cc(CCNC(C)=O)c2c1 [Melatonine]", "f"),
    ("O=C(O)CCCC[C@@H]1CCSS1 [Thioctic acid]", "t"),
    ("c1coc(CNc2ncnc3[nH]cnc23)c1 [Kinetin]", "t"),
    ("Nc1ncnc2c1ncn2[C@@H]1O[C@H](COP(=O)(O)OP(=O)(O)OP(=O)(O)O)[C@@H](O)[C@H]1O [Adenosine disodium triphosphate]", "f"),
]

Report whether reported inhibition of cell viability is lower than 0.02 (strictly) for COc1ccc(-c2cc(=O)c3c(O)cc(O[C@@H]4O[C@H](CO[C@@H]5O[C@@H](C)[C@H](O)[C@@H](O)[C@H]5O)[C@@H](O)[C@H](O)[C@H]4O)cc3o2)cc1O [Diosmin]
t

Also need CC1(C)C2CCC1(C)C(O)C2 (configuration not stated) [Borneol] , thanks.
f

Also need N[C@@H](Cc1cc(I)c(O)c(I)c1)C(=O)O [3,5-Diiodotyrosine Dihydrate] , thanks.
f

Also need Cc1cccc2c3c(ccc12)C1=C(C(=O)C3=O)[C@@H](C)CO1 [Dihydrotanshinone I] , thanks.
f

Also need CC[C@H](C)C(=O)O[C@H]1C[C@@H](C)C=C2C=C[C@H](C)[C@H](CC[C@@H]3C[C@@H](O)CC(=O)O3)[C@H]21 [Lovastatin] , thanks.
f

Also need COc1cc2ccc(=O)oc2cc1OC [Scoparone] , thanks.
t

Also need C[C@]12CCC(=O)C=C1CC[C@@H]1[C@@H]2[C@@H](O)C[C@@]2(C)[C@H]1CC[C@]2(O)C(=O)CO [Hydrocortisone] , thanks.
f

Also need C[C@@H]1O[C@@H](Oc2c(-c3ccc(O)c(O)c3)oc3cc(O)cc(O)c3c2=O)[C@H](O)[C@H](O)[C@H]1O [Quercitrin] , thanks.
f

Also need COc1cc(C(=O)O)cc(OC)c1O [Syringic acid] , thanks.
f

Also need CC1C(=O)OC2C(O)C34C5CC(C(C)(C)C)C36C(OC(=O)C6O)OC4(C(=O)O5)C12O (configuration not stated) [Ginkgolide B] , thanks.
t

Also need Oc1cc(O)c2c(c1)O[C@H](c1ccc(O)c(O)c1)[C@H](O)C2 [Epicatechin] , thanks.
f
